- TARGET ENTITY: T1, human EpCAM (human, UniProt P16422 24-314)
- T1 sequence (looked up): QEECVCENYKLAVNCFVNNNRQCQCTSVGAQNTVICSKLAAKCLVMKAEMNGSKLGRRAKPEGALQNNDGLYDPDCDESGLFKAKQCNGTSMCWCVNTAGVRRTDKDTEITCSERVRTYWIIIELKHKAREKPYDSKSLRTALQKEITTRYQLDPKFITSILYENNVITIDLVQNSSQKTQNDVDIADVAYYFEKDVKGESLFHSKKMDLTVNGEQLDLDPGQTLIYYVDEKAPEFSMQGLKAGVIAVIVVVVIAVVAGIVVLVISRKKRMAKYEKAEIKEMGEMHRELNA
- EXPERIMENTAL DETAILS: cell-based or functional assay
binders and their reported IC50 (nM), cytotoxicity on COLO205 cells (CellTiterGlo)
Number only, in nM; omit the unit.

INSERT INTO measurements (binder, val) VALUES
  ('ISOP130R5CP6_A06_R26A vcMMAF conjugate (designed binder, vcMMAF conjugated via the sortase reaction at the C-terminal sortase tag) MLPAPKNLVVSRVTEDSARLSWKHYAPGARFDSFLIQYQESEKVGEAIVLTVPGSERSYDLTGLKPGTEYTVSIYGVVTALPSYYSSNPLSAIFTTGGHHHHHHGGLPETGGH', 507),
  ('ISOP130R5CP6_A06_P27A vcMMAF conjugate (designed binder, vcMMAF conjugated via the sortase reaction at the C-terminal sortase tag) MLPAPKNLVVSRVTEDSARLSWKHYRAGARFDSFLIQYQESEKVGEAIVLTVPGSERSYDLTGLKPGTEYTVSIYGVVTALPSYYSSNPLSAIFTTGGHHHHHHGGLPETGGH', 42.6),
  ('ISOP130R5CP6_A06_K23A vcMMAF conjugate (designed binder, vcMMAF conjugated via the sortase reaction at the C-terminal sortase tag) MLPAPKNLVVSRVTEDSARLSWAHYRPGARFDSFLIQYQESEKVGEAIVLTVPGSERSYDLTGLKPGTEYTVSIYGVVTALPSYYSSNPLSAIFTTGGHHHHHHGGLPETGGH', 1);

(Q) Tell me the measured IC50 (nM), cytotoxicity on COLO205 cells (CellTiterGlo) of ISOP130R5CP6_A06_H24A vcMMAF conjugate (designed binder, vcMMAF conjugated via the sortase reaction at the C-terminal sortase tag) MLPAPKNLVVSRVTEDSARLSWKAYRPGARFDSFLIQYQESEKVGEAIVLTVPGSERSYDLTGLKPGTEYTVSIYGVVTALPSYYSSNPLSAIFTTGGHHHHHHGGLPETGGH , please.
(A) 2.6
